src = patent US20090280138A1

Quick list: % of positive control peptide binding per entry.
TESTED_TARGET: T1, MHC class I allele A*0301 (bound via biotin to streptavidin-coated plate)
T1 construct: iTopia MHC class I monomer on the plate; placeholder peptide and b2M removed, then reconstituted with test peptide and fresh b2M; also called A3; HLA A3
EXPERIMENTAL_PROTOCOL: iTopia peptide binding assay
Answer format reminder: number followed by unit.

Suppose we examine the binder PAGAFARRP (also called Peptide No 54) [5T4 9 mer peptide 54 PAGAFARRP] ; what % of positive control peptide binding value has been reported?
3%

More entries:
Suppose we examine the binder AALNLSGSR (also called Peptide No 61) [5T4 9 mer peptide 61 AALNLSGSR] ; what % of positive control peptide binding value has been reported?
13%

Suppose we examine the binder VKCVNRNLT (also called Peptide No 38) [5T4 9 mer peptide 38 VKCVNRNLT] ; what % of positive control peptide binding value has been reported?
0%

Suppose we examine the binder LDLSNNSLV (also called Peptide No 120) [5T4 9 mer peptide 120 LDLSNNSLV] ; what % of positive control peptide binding value has been reported?
3%

Suppose we examine the binder PLADLSPFA (also called Peptide No 77) [5T4 9 mer peptide 77 PLADLSPFA] ; what % of positive control peptide binding value has been reported?
0%

Suppose we examine the binder SSAPFLASA (also called Peptide No 22) [5T4 9 mer peptide 22 SSAPFLASA] ; what % of positive control peptide binding value has been reported?
1%

Suppose we examine the binder AGRALQGLR (also called Peptide No 103) [5T4 9 mer peptide 103 AGRALQGLR] ; what % of positive control peptide binding value has been reported?
2%

Suppose we examine the binder LNLSGSRLD (also called Peptide No 62) [5T4 9 mer peptide 62 LNLSGSRLD] ; what % of positive control peptide binding value has been reported?
2%

Suppose we examine the binder LAELAALNL (also called Peptide No 59) [5T4 9 mer peptide 59 LAELAALNL] ; what % of positive control peptide binding value has been reported?
3%
